# switch fluorescence ratio listing for each entry below
- Tested on: ATP;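 also: ATP exposure 15 min at 22 °C before imaging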
- assay_text: switch fluorescence ratio, 500 uM ATP over buffer (Cy3 cluster intensity, sum of 5 cycles each) (fold (ratio)); higher = stronger signal-on switching upon ATP binding; sequences stand for … in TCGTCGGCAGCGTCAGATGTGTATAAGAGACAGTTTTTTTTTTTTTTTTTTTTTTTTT…TC
- condition_summary: aptamer strand: ATP DNA aptamer (quencher-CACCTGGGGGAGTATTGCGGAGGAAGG + anchor), 100 nM annealed; ATP concentration: 500 uM
Please reply with the number alone, leaving off any unit.

// below: answered sequences
[[record]]
residues = "GGTTCGAGAC"
reported_value = 1.01

[[record]]
residues = "TCGTACGTGG"
reported_value = 0.998

[[record]]
residues = "CGTGGTGGGA"
reported_value = 0.974

[[record]]
residues = "GCATATTTGA"
reported_value = 0.981


# evaluate next
Looking up CGGTACCCAT , I see its switch fluorescence ratio listed as 1.01
